System: MALME-3M melanoma
Assay: NCI tumour cell line growth inhibition, 48 h
TGI listing for selected compounds.
OBSERVABLE: TGI

1. N#Cc1cc(F)cc(Oc2ccc(S(=O)(=O)C(F)F)c3c2CC(F)(F)[C@H]3O)c1; > 100 µM
2. O=C1C=CC2(CCC23C=CC(=O)O3)O1 (stereo not given); > 100 µM
3. C1CN2CCO[SiH](O1)OCC2; > 100 µM
4. CC(C)N(C(=O)C12C3C4C1C1C4(C#N)C3C12C(=O)O)C(C)C (stereo not given); > 100 µM
5. Cc1cc(OC2OC(CO)C(O)C(O)C2O)ccc1O (stereo not given); > 100 µM
6. COc1cccc(/C=N/[N-]C(N)=O)c1[O-].[Cu+2].[OH3+]; 28.8 µM
7. COc1cc(C=O)cc(C=Nc2ccc(Br)cc2)c1O; 17.2 µM
8. C[C@]12CCc3nc(Nc4ccc(O)cc4)sc3C1=CC[C@@H]1[C@@H]2CC[C@]2(C)/C(=N/NC(N)=S)CC[C@@H]12; 2.38 µM
9. N#Cc1c(-c2ccccc2)c(-c2ccccc2)cc2c(=O)c3ccc(Cl)cc3[nH]c12; > 100 µM
10. CN1CCCc2nc3ccccc3n2C1; > 100 µM

Values compiled from PubChem BioAssay (NCI).
